Provide the reported TGI of each item.
system: NCI/ADR-RES ovarian; assay: NCI tumour cell line growth inhibition, 48 h

Reported TGI, compound CC1SC2(CCCCC2)N(NC(=O)CSc2nc3ccc(Cl)cc3c(=O)n2-c2ccccc2)C1=O (centres undefined) : ____
50.2 µM

Which TGI value is on record for O=C1CC(=O)NC(=NN2C(=O)CSC2C(=O)c2ccco2)N1 (centres undefined) ?
> 100 µM

Please give the measured TGI for this compound: O=C(c1cccs1)N1CCCN(C(=O)c2cccs2)C1=S
> 100 µM

GET /values?readout=TGI&item= O=C(c1cccnc1)N1N=C(c2ccccc2)CC1(O)c1cc(F)c(Cl)cc1Cl (centres undefined)
83.7 µM

Source: PubChem BioAssay (NCI)
